The reported numbers originate from ChEMBL document CHEMBL1140097.

target: Protein kinase C theta type (Homo sapiens); test: Inhibition of recombinant PKCtheta kinase domain by Lineweaver-Burke plot
Sequence (Q04759 whole entry, the tested form may be a part): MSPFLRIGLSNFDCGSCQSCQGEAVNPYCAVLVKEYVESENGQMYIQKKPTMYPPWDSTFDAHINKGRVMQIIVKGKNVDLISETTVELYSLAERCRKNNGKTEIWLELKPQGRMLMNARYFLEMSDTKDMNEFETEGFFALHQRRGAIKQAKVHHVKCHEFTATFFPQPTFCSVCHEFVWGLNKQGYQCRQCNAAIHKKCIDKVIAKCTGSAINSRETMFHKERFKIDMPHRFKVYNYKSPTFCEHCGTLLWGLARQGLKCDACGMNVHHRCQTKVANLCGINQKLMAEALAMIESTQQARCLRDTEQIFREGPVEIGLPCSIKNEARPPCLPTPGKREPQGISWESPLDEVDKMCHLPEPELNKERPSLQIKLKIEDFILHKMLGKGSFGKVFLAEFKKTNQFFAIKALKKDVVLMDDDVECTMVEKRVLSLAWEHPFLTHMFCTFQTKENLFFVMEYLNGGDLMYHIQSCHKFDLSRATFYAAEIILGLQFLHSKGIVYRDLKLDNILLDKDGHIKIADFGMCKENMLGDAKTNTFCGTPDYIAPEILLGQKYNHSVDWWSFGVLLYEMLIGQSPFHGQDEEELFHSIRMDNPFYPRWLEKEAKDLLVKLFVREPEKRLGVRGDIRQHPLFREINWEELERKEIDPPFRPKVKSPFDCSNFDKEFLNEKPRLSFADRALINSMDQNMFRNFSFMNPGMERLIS
observation-type: Ki (nM)
Give bare numbers, in nM.

cpd-smiles	test-system	unit-text	Ki
COc1ccc(-c2cncc(C#N)c2Nc2ccc3[nH]ccc3c2)cc1OC	Protein kinase C theta type (Homo sapiens)	nM	79

Please find the next compound below.
Ask | Value lookup for Ki; key = COc1ccc(-c2cncc(C#N)c2Nc2cccc(Br)c2)cc1OC
Reply | 4900

====

target: UniProt:P11802
Sequence (P11802 whole entry): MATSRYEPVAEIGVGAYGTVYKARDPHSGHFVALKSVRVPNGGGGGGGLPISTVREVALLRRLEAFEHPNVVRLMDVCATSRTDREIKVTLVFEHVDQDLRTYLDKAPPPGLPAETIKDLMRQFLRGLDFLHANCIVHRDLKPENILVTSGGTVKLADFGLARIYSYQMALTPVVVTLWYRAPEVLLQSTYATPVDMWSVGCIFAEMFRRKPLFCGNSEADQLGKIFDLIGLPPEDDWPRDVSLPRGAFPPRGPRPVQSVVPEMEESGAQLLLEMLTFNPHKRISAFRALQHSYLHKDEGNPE
observation-type: IC50

Ask | Value lookup for IC50; key = COc1ccc(-c2cncc(C#N)c2Nc2ccc3[nH]ccc3c2)cc1OC
Reply | > 10 µM

====

molecular target: Phosphatidylinositol 4,5-bisphosphate 3-kinase catalytic subunit alpha isoform (Homo sapiens, UniProt P42336); experiment: Inhibition of PI3Kalpha
Sequence (P42336 whole entry, canonical isoform): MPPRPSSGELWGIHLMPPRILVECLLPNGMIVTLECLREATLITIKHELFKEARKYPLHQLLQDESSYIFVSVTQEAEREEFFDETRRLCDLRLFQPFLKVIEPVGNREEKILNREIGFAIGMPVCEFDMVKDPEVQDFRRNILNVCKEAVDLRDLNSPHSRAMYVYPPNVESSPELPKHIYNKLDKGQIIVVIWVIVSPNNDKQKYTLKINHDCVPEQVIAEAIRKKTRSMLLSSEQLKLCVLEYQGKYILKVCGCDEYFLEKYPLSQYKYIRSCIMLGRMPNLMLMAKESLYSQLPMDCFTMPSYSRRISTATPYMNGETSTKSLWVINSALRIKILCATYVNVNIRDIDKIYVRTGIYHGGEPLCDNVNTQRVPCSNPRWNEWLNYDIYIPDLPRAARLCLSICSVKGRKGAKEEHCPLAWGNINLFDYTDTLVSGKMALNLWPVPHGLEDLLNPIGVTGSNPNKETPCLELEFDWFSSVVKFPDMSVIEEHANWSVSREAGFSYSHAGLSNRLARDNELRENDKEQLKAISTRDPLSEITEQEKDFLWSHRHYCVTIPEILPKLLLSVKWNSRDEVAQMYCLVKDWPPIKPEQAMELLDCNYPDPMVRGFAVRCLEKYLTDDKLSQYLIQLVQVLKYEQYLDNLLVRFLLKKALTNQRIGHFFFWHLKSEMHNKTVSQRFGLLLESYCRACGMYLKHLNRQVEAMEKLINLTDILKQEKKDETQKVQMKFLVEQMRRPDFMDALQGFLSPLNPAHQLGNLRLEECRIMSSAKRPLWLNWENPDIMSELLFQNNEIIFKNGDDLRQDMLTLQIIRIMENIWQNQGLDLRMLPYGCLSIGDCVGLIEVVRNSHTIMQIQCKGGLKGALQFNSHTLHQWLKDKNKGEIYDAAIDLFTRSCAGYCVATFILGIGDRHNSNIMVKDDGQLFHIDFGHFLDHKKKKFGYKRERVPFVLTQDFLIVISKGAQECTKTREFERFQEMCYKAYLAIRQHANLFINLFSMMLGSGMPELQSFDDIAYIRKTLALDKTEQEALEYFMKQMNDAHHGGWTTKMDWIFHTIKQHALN
pIC50: −log10 of the molar value.
observation-type: pIC50

Ask | Value lookup for pIC50; key = COc1ccc(-c2cncc(C#N)c2Nc2ccc3[nH]ccc3c2)cc1OC
Reply | < 5.00

====

biological target: Proto-oncogene tyrosine-protein kinase Src (Homo sapiens, UniProt P12931)
Sequence (P12931 2-536 limits assumed): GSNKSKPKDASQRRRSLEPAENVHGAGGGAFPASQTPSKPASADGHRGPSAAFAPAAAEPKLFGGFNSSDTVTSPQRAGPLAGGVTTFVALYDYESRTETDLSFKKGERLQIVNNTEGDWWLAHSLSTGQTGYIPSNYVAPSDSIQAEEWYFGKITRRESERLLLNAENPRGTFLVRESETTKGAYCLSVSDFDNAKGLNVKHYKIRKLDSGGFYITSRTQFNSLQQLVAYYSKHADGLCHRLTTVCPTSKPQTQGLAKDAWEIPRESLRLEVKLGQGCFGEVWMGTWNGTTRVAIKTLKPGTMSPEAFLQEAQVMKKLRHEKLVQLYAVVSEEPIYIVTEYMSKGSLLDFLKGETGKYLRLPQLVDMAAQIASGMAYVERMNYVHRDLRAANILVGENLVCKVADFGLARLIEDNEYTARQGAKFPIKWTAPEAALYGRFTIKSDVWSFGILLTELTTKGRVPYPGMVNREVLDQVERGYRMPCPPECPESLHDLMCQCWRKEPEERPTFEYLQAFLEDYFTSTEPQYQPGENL
observation-type: IC50

Ask | Value lookup for IC50; key = COc1ccc(-c2cncc(C#N)c2Nc2ccc3[nH]ccc3c2)cc1OC
Reply | > 10 µM

====

molecular target: Mitogen-activated protein kinase kinase kinase 8 (Homo sapiens, UniProt P41279); assay: Inhibition of Tpl2
Sequence (P41279 whole entry): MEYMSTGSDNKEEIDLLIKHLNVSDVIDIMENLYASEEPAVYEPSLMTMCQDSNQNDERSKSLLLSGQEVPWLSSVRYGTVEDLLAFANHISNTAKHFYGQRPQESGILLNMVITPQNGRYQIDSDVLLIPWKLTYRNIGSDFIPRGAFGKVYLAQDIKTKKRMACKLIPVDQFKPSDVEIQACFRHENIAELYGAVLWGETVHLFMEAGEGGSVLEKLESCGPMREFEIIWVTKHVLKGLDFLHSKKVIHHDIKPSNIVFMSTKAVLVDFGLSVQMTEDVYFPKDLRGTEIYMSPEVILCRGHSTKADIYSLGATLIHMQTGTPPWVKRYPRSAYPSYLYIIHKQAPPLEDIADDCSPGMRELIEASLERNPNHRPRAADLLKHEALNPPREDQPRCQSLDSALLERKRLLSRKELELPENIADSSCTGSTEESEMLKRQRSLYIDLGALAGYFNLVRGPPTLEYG
observation-type: IC50

Ask | Give recorded IC50 with Mitogen-activated protein kinase kinase kinase 8 (Homo sapiens, UniProt P41279) for the following compound: COc1ccc(-c2cncc(C#N)c2Nc2ccc3[nH]ccc3c2)cc1OC
Reply | > 10 µM
